B1: FEM1A (parent)
chain: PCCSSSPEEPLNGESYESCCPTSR

# Variants of: B1
# EXPERIMENT: protein stability index of a GFP-peptide fusion (GPS, HEK-293T) (PSI 1-6); higher = more stable;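 also: lentivirally expressed fusions sorted by FACS into six bins by GFP to DsRed ratio, PSI derived from sequencing read proportions per bin multiplied by bin number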
# PROTOCOL CONDITIONS: c terminus: a fixed tail appended
MEASURED PARAMETER: protein stability index

• C19F = 3.76
• C2W = 4.37
• S4P = 4.58
• S15C = 3.47
• S15T = 2.69
• S15I = 3.66
• G13Y = 3.01
• P7N = 3.14
• S18P = 4
• G13L = 3.63
• P7D = 4.65
• P21G = 3.78
• P21R = 4.13
• S23P = 3.52
• E9S = 2.88
• T22I = 3.38
